target: human GLP-1R (SNAP-GLP-1R expressed in HEK293 cells) (human) (UniProt P43220); experiment: cell-based or functional assay
Sequence (P43220 24-463): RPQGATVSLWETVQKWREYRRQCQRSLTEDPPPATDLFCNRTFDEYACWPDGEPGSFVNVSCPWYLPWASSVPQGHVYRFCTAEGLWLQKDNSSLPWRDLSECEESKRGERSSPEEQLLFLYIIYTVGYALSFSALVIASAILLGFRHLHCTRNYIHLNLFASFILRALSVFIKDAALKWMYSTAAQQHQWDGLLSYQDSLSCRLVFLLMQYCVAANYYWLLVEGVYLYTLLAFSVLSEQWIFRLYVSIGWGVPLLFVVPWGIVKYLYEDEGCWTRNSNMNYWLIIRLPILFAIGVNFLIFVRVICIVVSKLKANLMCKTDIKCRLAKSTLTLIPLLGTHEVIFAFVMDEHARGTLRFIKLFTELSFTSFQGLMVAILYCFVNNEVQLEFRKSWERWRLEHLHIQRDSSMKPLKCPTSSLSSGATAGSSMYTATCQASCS
Non-standard residues stand in square brackets, D forms with d. No end group written: not given here. αMeL = CC(C)C[C@](C)(N)C(=O)O; Aib = CC(C)(N)C(=O)O
Assignment: determine reported GLP1R Internalization EC50 for the given binders.
Field: value (include unit after the number)

Record excerpt, results attached:
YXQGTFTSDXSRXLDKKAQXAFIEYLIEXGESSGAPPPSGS (synthetic construct; SITE 2: note = 2-Aminoisobutyric Acid; SITE 10: note = 3-(4-Pyridyl)-L-alanine; SITE 13: note = alpha-methyl-leucine; SITE 17: note = Lysine is chemically modified through conjugation of the epsilon-amino group of the Lysine side chain with (2-[2-(2-Amino-ethoxy)-ethoxy]-acetyl)) [Example 224]: 32.2 nM
Y[Aib]QGTFTSDYSI[αMeL]LDKQAAKQFVEWLLA[Aib]GPSSGEPPPSEG (not fully specified (residue 20)) [Example 329]: 34 nM

Pending binder:
[ask] Name the recorded GLP1R Internalization EC50 for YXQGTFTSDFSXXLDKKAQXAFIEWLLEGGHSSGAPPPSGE (synthetic construct; SITE 2: note = 2-Aminoisobutyric Acid; SITE 12: note = L-ornithine; SITE 13: note = alpha-methyl-leucine; SITE 17: note = Lysine is chemically modified through conjugation of the epsilon-amino group of the Lysine side chain with (2-[2-(2-Amino-ethoxy)-ethoxy]-acetyl)2-(gamma-Glu)) [Example 169] .
[reply] 178 nM
